Ref: patent US4895842A

Target: bovine thrombin (Bos taurus)
Assay: Antithrombin activity: inhibition of fibrin formation from fibrinogen
Format: biochemical
Where a name gives a salt, the structure may show the parent alone.
Please provide measured IC50 for the entries that follow.

Consider the worked cases shown below.
NCc1ccc(C(=O)N[C@@H](Cc2ccc(OCc3ccccc3)cc2)C(=O)NC2CCC(O)CC2)cc1 (some centres unmarked)    > 20 µM
CC(=O)c1ccc(NC(=O)[C@H](Cc2ccc(OCC(=O)c3ccccc3)cc2)NC(=O)[C@H]2CC[C@H](CN)CC2)cc1    > 50 µM
NC[C@H]1CC[C@H](C(=O)N[C@@H](Cc2ccc(OCc3cccc(Cl)c3)cc2)C(=O)Nc2cccc(Cl)c2)CC1    > 50 µM
CC(=O)c1ccc(NC(=O)[C@H](Cc2ccc(OCc3ccccc3)cc2)NC(=O)[C@H]2CC[C@H](CN)CC2)cc1    > 100 µM
NC[C@H]1CC[C@H](C(=O)N[C@@H](Cc2ccc(OCc3ccccc3)cc2)C(=O)Nc2cccc(Cl)c2)CC1    > 50 µM

Please supply IC50 for each of the following items, keeping them in order.
1. NCC1CCC(C(=O)NC(Cc2ccc(OCc3cccc(Cl)c3)cc2)C(=O)Nc2cccc(S(N)(=O)=O)c2)CC1 (centres unmarked)
2. NC[C@H]1CC[C@H](C(=O)N[C@@H](Cc2ccc(OCc3ccccc3)cc2)C(=O)NC2CC3CCC2C3)CC1 (some centres unmarked)
3. NC[C@H]1CC[C@H](C(=O)N[C@@H](Cc2ccc(OCc3ccccc3)cc2)C(=O)N2CCC(C(=O)c3ccccc3)CC2)CC1
4. NC[C@H]1CC[C@H](C(=O)N[C@@H](Cc2ccc(OCc3ccccc3)cc2)C(=O)Nc2ccnc(Cl)c2)CC1 [Compound No. 59, hydrochloride]

["> 100 µM", "> 250 µM", "> 100 µM", "> 250 µM"]

Please supply IC50 for each of the following items, keeping them in order.
1. NC[C@H]1CC[C@H](C(=O)N[C@@H](Cc2ccc(OCc3ccccc3)cc2)C(=O)Nc2ccncc2)CC1
2. Cc1ccc(NC(=O)[C@H](Cc2ccc(OCc3ccccc3)cc2)NC(=O)c2ccc(CN)cc2)cc1
3. COc1ccc(NC(=O)[C@H](Cc2ccc(OCc3ccccc3)cc2)NC(=O)c2ccc(CN)cc2)cn1
4. CC(=O)c1ccc(NC(=O)[C@H](Cc2ccc(OC(=O)OCc3ccccc3Cl)cc2)NC(=O)[C@H]2CC[C@H](CN)CC2)cc1

1. > 500 µM
2. > 50 µM
3. > 200 µM
4. > 50 µM

Entry under review: NC[C@H]1CC[C@H](C(=O)N[C@@H](Cc2ccc(OCc3cccc(Cl)c3)cc2)C(=O)Nc2ccnc(Cl)c2)CC1 . Reported IC50?
> 100 µM
